assay: Cytotoxicity against HEK293T cells expressing FXR and beta-lactamase genes assessed as inhibition of cell viability at 13.3 uM after 16 hrs by CellTiter-Glo luminescent assay relative to control; assay type: cell-based, HEK-293T; details: human, read-out: INH
QUANTITY NAME: cytotoxicity at 16 h, 13.3 µM

Hello, please tell me recorded cytotoxicity at 16 h, 13.3 µM for this one: `Cc1ccc(-c2nn(-c3nc4ccccc4s3)cc2C(=O)Nc2ccc(C)c(S(=O)(=O)N3CCOCC3)c2)cc1`
11.5%

---

molecular target: Bile acid receptor (Homo sapiens) (UniProt Q96RI1); assay: Inhibition of GW4064-induced transactivation of FXR (unknown origin) expressed in HEK293T cells at 40 uM after 16 hrs by beta-lactamase reporter gene assay relative to control; format: cell-based; conditions: HEK-293T
Sequence (Q96RI1 whole entry): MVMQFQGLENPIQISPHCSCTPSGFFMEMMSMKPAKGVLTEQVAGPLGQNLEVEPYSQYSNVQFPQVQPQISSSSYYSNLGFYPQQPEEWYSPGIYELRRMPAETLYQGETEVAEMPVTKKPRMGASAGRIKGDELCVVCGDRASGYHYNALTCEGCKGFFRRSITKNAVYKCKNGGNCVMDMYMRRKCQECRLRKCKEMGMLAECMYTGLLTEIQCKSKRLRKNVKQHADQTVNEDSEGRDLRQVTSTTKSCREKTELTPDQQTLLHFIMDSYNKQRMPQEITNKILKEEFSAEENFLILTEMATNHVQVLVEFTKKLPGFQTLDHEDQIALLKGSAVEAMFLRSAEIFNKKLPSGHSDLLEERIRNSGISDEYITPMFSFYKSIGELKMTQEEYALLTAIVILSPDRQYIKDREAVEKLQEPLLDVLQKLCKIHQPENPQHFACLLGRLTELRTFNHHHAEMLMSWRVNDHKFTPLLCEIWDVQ
inhibition values by entry
# number only, unit % dropped from output

Use these answered entries as a reference point.
SMILES STRING | RECORDED VALUE
COc1cccc(Cn2cc(C(=O)Nc3ccc(C)c(S(=O)(=O)N4CCOCC4)c3)c(C(C)C)n2)c1 | 99.2
Cc1ccc(-c2nn(Cc3ccc4ccccc4c3)cc2C(=O)Nc2ccc(C)c(S(=O)(=O)N3CCOCC3)c2)cc1 | 84.4
Cc1ccc(-c2nn(CC3CC3)cc2C(=O)Nc2ccc(C)c(S(=O)(=O)N3CCOCC3)c2)cc1 | 100

Please indicate inhibition recorded for `COc1ccc(-c2nn(-c3ccccc3)cc2C(=O)Nc2cc(S(=O)(=O)N3CCOCC3)ccc2N2CCOCC2)cc1`
27

---

Overview of reported inhibition across a group of compounds:
biological target: Bile acid receptor (Homo sapiens); assay: Antagonist activity at human GST-tagged FXR at 493 nM after 20 mins by TR-FRET assay relative to control
Respond with the figure and its unit, in that order.

Consider the reported inhibition for these compounds:
SMILES STRING | inhibition
Cc1ccc(-c2nn(-c3ccccc3)cc2C(=O)Nc2cccc(S(=O)(=O)N3CCOCC3)c2)cc1 | 27.5%
O=C(Nc1ccc(S(=O)(=O)N2CCOCC2)cc1)c1cn(-c2ccccc2)nc1-c1ccccc1 | 12.7%
O=C(Nc1cccc(S(=O)(=O)N2CCOCC2)c1)c1cn(-c2ccccc2)nc1-c1ccccc1 | 44.4%
Cc1ccc(-c2nn(-c3ccc(F)cc3)cc2C(=O)Nc2ccc(C)c(S(=O)(=O)N3CCOCC3)c2)cc1 | 95%
O=C(Nc1cccc(S(=O)(=O)N2CCOCC2)c1)c1cn(-c2ccccc2)nc1-c1ccc(F)cc1 | 53.3%

Answer with reported inhibition of `Cc1ccc(-c2nn(CCCCO)cc2C(=O)Nc2ccc(C)c(S(=O)(=O)N3CCOCC3)c2)cc1`
89.3%

Supply recorded inhibition for `COc1cccc(Cn2cc(C(=O)Nc3ccc(C)c(S(=O)(=O)N4CCOCC4)c3)c(-c3cccc(OC)c3)n2)c1` here.
114%

---

assay: Cytotoxicity against HEK293T cells expressing FXR and beta-lactamase genes assessed as inhibition of cell viability at 40 uM after 16 hrs by CellTiter-Glo luminescent assay relative to control; assay type: cell-based, HEK-293T; settings: human, read-out: INH
QUANTITY NAME: cytotoxicity at 16 h, 40 µM (%)
Kindly answer with a numeric value in %, unit omitted.

SMILES STRING | cytotoxicity at 16 h, 40 µM [%]
Cc1ccc(-c2nn(-c3cccc(C(F)(F)F)c3)cc2C(=O)Nc2ccc(C)c(S(=O)(=O)N3CCOCC3)c2)cc1 | 7.3

Return reported cytotoxicity at 16 h, 40 µM. Input compound: `O=C(Nc1cccc(S(=O)(=O)N2CCOCC2)c1)c1cn(-c2ccccc2)nc1-c1ccc(F)cc1`
16.3

Provide measured cytotoxicity at 16 h, 40 µM value, entry: `Cc1ccc(-c2nn(C(C)C)cc2C(=O)N(C)c2ccc(C)c(S(=O)(=O)N3CCOCC3)c2)cc1`
15

Determine its reported cytotoxicity at 16 h, 40 µM: `Cc1ccc(-c2nn(CCCCO)cc2C(=O)Nc2ccc(C)c(S(=O)(=O)N3CCOCC3)c2)cc1`
5.9
